Test system: α-H-α-amino acid amide racemase from Arthrobacter nicotianae NCIMB 41126
Test: Substrate specificity, CFE from E. coli DH10B/pAn(1)PLV36D06 (Example 9)
Format: biochemical
Conditions: relative to the activity towards D-leucine amide; 75 mM substrate, pH 8.0, 37° C.
Overview of recorded Rel. initial activity for various compounds
Answer with a number only, understood to be in %.

- compound: "CCC[C@@H](N)C(N)=O [D-norvaline amide]"
  reported: 107

Ask | # query: Rel. initial activity | item CC[C@H](N)C(N)=O [L-2-aminobutyric acid amide] | system: α-H-α-amino acid amide racemase from Arthrobacter nicotianae NCIMB 41126
Reply | 76

Ask | # query: Rel. initial activity | item CC(C)C[C@@H](N)C(N)=O [D-leucine amide] | system: α-H-α-amino acid amide racemase from Arthrobacter nicotianae NCIMB 41126
Reply | 100

Ask | # query: Rel. initial activity | item CC(C)[C@@H](N)C(N)=O [D-valine amide] | system: α-H-α-amino acid amide racemase from Arthrobacter nicotianae NCIMB 41126
Reply | 45

---

Test system: partially purified α-H-α-amino acid amide racemase from O. anthropi IA
Experiment: Substrate specificity of the partially purified racemase (Example 8)
Type: biochemical, Ochrobactrum anthropi IA
Parameters: tested at 75 mM
Settings: relative to the activity towards L-leucine amide; pH 8.0, 37° C.
assay readout: Rel. initial activity (%)
Answer with a number only, understood to be in %.

- compound: "NC(=O)[C@H](N)c1ccccc1 [D-phenylglycineamide]"
  value unit: "%"
  Rel. initial activity: 9.1
- compound: "CCC[C@@H](N)C(N)=O [D-norvaline amide]"
  value unit: "%"
  Rel. initial activity: 341
- compound: "NC(=O)[C@@H](N)Cc1ccccc1 [L-phenylalanineamide]"
  value unit: "%"
  Rel. initial activity: 4.5
- compound: "C[C@H](N)C(N)=O [L-alanine amide]"
  value unit: "%"
  Rel. initial activity: 350
- compound: "CC[C@H](N)C(N)=O [L-2-aminobutyric acid amide]"
  value unit: "%"
  Rel. initial activity: 641
- compound: "CC[C@H](C)[C@H](N)C(N)=O [LL-isoleucine amide]"
  value unit: "%"
  Rel. initial activity: 4.5
- compound: "CC(C)C[C@H](N)C(N)=O [L-leucine amide]"
  value unit: "%"
  Rel. initial activity: 100
- compound: "CC(C)[C@H](N)C(N)=O [L-valine amide]"
  value unit: "%"
  Rel. initial activity: 4.5

Ask | What measured Rel. initial activity goes with NC(=O)[C@H](N)CCCC1OCCO1 ?
Reply | 9.1

Ask | What measured Rel. initial activity goes with C[C@H](O)[C@H](N)C(N)=O [LL-threonine amide] ?
Reply | 100
